- tgt: T1, vascular endothelial (VE) cadherin (human, UniProt P33151 48-784)
- T1 sequence (looked up): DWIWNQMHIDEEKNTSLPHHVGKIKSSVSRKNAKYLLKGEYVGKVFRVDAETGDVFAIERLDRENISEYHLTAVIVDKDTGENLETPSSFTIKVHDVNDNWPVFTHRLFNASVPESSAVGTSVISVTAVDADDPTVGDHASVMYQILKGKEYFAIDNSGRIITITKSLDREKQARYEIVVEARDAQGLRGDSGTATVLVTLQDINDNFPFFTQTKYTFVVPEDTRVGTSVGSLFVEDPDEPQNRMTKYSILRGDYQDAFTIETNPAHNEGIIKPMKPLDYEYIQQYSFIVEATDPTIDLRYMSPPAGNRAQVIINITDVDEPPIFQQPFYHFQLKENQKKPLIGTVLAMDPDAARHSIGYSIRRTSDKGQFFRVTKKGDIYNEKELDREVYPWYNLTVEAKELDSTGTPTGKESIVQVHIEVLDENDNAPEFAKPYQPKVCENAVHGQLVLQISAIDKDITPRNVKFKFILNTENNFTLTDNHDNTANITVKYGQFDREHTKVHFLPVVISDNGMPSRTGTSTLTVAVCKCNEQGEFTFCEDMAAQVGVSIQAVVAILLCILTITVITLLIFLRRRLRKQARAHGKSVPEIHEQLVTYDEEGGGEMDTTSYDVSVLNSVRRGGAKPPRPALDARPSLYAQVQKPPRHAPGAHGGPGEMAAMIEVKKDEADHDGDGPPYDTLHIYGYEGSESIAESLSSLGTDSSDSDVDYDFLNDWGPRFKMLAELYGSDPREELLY
- assayComment: cell-based or functional assay
Non-standard residues stand in square brackets, D forms with d. Primed or numbered codes have the meaning given here. No end group written: not given here. Haic′ = not defined here; Acdn = not defined here
propertyLabel: Relative RhoA stimulation compared to unstimulated control

# input Would you kindly share the measured Relative RhoA stimulation compared to unstimulated control for GHRPLDK[Haic′]ISGGGYR [Gly-His-Arg-Pro-Leu-Asp-Lys-Haic-Ile-Ser-Gly-Gly-Gly-Tyr-Arg] ?
# output 1.3 fold of unstimulated control

# input Can you look up the measured Relative RhoA stimulation compared to unstimulated control of GHRPLDK[Acdn]ISGGGYR-NH2 (reading uncertain; also: printed as Gly-His-Arg-Pro-Leu-Asp-Lys-Acdn-Ile-Ser-Gly-Gly-Gly-Tyr-Arg-NH2) [Gly-His-Arg-Pro-Leu-Asp-Lys-Acdn-Ile-Ser-Gly-Gly-Gly-Tyr-Arg] for me?
# output 1.3 fold of unstimulated control

# input For GHRPLDK[(1S,2R)Achc]ISGGGYR (not fully specified; printed as Gly-His-Arg-Pro-Leu-Asp-Lys-(1S,2R)Achc-Ile-Ser-Gly-Gly-Gly-Tyr-Arg) [Gly-His-Arg-Pro-Leu-Asp-Lys-(1S,2R)Achc-Ile-Ser-Gly-Gly-Gly-Tyr-Arg] , what is its reported Relative RhoA stimulation compared to unstimulated control?
# output 1.5 fold of unstimulated control

# input Would you mind telling me what Relative RhoA stimulation compared to unstimulated control value was observed for GHRPLDK[cis‑4‑Acha]ISGGGYR [Gly-His-Arg-Pro-Leu-Asp-Lys-(cis-4-Acha)-Ile-Ser-Gly-Gly-Gly-Tyr-Arg] ?
# output 1 fold of unstimulated control
